# Test system: HT29 colon
# TEST_DESCRIPTION: NCI-60 one-dose screen, 48 h
# ASSAY_CONTEXT: 10 µM unless noted
# Protocol: Growth inhibition of the HT29 human tumor cell line is measured as a screen for anti-cancer activity. Cells are grown in 96 well plates and exposed to the test compound for 48 hours. Compounds are tested at a single concentration, which is 10^-5 M for most compounds. The reported endpoint is percent growth (GI% or GIPRCNT), where numbers from 0 - 100% represent growth inhibition, and numbers from -100% - 0 represent cell death. For example, a value of 40 represents 60% growth inhibition. […]
The panel holds about 83,000 compounds, 20% with a hit somewhere; the sample as a whole holds those more often. Calls of active or inactive are those of the source. The calls were made as follows: active = growth percent below 10; inactive = the rest.
Output constraint: value belongs to 1 (yes) for active, 0 (no) for inactive

Ask: Write down the call the test reported for this compound. Item: CCN1C(=O)N(c2ccccc2)C2Nn3c(s/c(=C4\C(=O)N(C(C)C)c5ccccc54)c3=O)=NC21 (centres undefined)
Reply: 0 (no)

Ask: Write down the call the test reported for this compound. Item: CCCCOCc1cc(CN2CCN(C)CC2)c(O)c2ncccc12
Reply: 0 (no)

Ask: Write down the call the test reported for this compound. Item: O=C(Nc1ccccc1O)c1ccc(Oc2cccc(C(=O)Nc3ccccc3O)c2)cc1
Reply: 0 (no)

Ask: Write down the call the test reported for this compound. Item: CCCCCCCCCCCCCCn1cc(C2=C(c3coc4ccc(OC)cc34)C(=O)NC2=O)c2ccccc21
Reply: 0 (no)

Ask: Write down the call the test reported for this compound. Item: O=C(Nc1ccc(F)cc1F)c1cc(Br)ccc1O
Reply: 0 (no)

Ask: Write down the call the test reported for this compound. Item: COc1ccc(OC)c(N(CCN2C(=O)c3ccccc3C2=O)C(=O)CCl)c1
Reply: 0 (no)

Ask: Write down the call the test reported for this compound. Item: CCOC(=O)C(CC(=O)O)=C(C(=O)OCC)C(=O)OCC
Reply: 0 (no)

Ask: Write down the call the test reported for this compound. Item: O=c1oc2ccc(Cl)cc2c(=O)n1-c1cc(C(F)(F)F)cc(C(F)(F)F)c1
Reply: 1 (yes)

Ask: Write down the call the test reported for this compound. Item: CCN1CCN(C(=S)SCC(=O)Nc2nc3ccc(C)cc3s2)CC1
Reply: 0 (no)

###

# System: ACHN renal
# TEST_DESCRIPTION: NCI-60 one-dose screen, 48 h
# ASSAY_CONTEXT: 10 µM unless noted
About 83,000 compounds went through this panel and 20% of them were active in at least one assay; those are over-represented in the sample as a whole. Activity calls are given as the source filed them. The calls were made as follows: active = growth percent below 10; inactive = the rest.
Output constraint: value belongs to true (1) for active, false (0) for inactive

Ask: Write down the call the test reported for this compound. Item: COC(=O)/C(CCC=C(C)C)=C1\[C@@H](OC(C)=O)C[C@@]2(C)[C@H]1C[C@@H](O)[C@H]1[C@@]3(C)CC[C@H](NCc4ccccc4)[C@@H](C)[C@@H]3CC[C@@]12C
Reply: false (0)

Ask: Write down the call the test reported for this compound. Item: COc1ccc(C2Nc3ncnc(N)c3N=C3c4ccccc4C(=O)C32)cc1 (centres undefined)
Reply: false (0)

Ask: Write down the call the test reported for this compound. Item: CC1=CCC(OC(=O)C(C)(C)CCC(O)(C(=O)OC2(C(C)C)CCC3(C)OC3C2)C(C)C)(C(C)C)CC1 (centres undefined)
Reply: true (1)

Ask: Write down the call the test reported for this compound. Item: Oc1c(C(Nc2ccccn2)c2cccc(Oc3ccccc3)c2)ccc2cccnc12 (centres undefined)
Reply: true (1)

Ask: Write down the call the test reported for this compound. Item: CCOC(=O)c1sc(-c2ccc(OS(=O)(=O)C[C@]34CCC(CC3=O)C4(C)C)c(C=O)c2)nc1C
Reply: false (0)

Ask: Write down the call the test reported for this compound. Item: O=C(N/N=C/c1ccccc1O)C(=O)Nc1ccc(F)cc1
Reply: false (0)

Ask: Write down the call the test reported for this compound. Item: COc1cc2nc(-c3cnc(N(C)C)nc3)nc(NC3CCN(Cc4ccccc4)CC3)c2cc1OC
Reply: true (1)

Ask: Write down the call the test reported for this compound. Item: CCN1CCN(c2cc(C)c3cc(NC(=O)c4ccc(OC)c(OC)c4)ccc3n2)CC1
Reply: false (0)

Ask: Write down the call the test reported for this compound. Item: CN(CCc1ccccc1)C(=S)N(C(=O)c1ccc([N+](=O)[O-])cc1)c1ccc(Cl)cc1
Reply: false (0)

###

# Test system: OVCAR-5 ovarian
# TEST_DESCRIPTION: NCI-60 one-dose screen, 48 h (100 = growth as untreated, 0 = no growth, -100 = all killed)
# ASSAY_CONTEXT: 10 µM unless noted
The panel holds about 83,000 compounds, 20% with a hit somewhere; the sample as a whole holds those more often.
Would you kindly list growth for each of these compounds?
Respond numerically; units are % and should not be typed.

Ask: What does the data say about its growth? Entry: CCOC(=O)c1cnc2ccc(Cl)cc2c1NCCCN(C)C
Reply: 53.8

Ask: What does the data say about its growth? Entry: COc1cc(/C=C2\CN(C)C/C(=C\c3cc(CN4CCCC4)c(O)c(OC)c3)C2=O)cc(CN2CCCC2)c1O
Reply: 94.5

Ask: What does the data say about its growth? Entry: O=C(Nc1ccc(-c2nc3cc4ccccc4cc3[nH]2)cc1)c1cccc(Br)c1
Reply: 73.7

Ask: What does the data say about its growth? Entry: COc1ccc(C2NCCc3c2[nH]c2ccccc32)cc1CN1CCN(c2ccc(F)cc2)CC1 (stereo not drawn)
Reply: 64.8

Ask: What does the data say about its growth? Entry: CSc1nc2c(c(=O)[nH]1)N=C1c3ccccc3C(=O)C1C(c1ccccc1)N2 (stereo not drawn)
Reply: 82.5

Ask: What does the data say about its growth? Entry: CC1=CCC(OC(=O)C(C)(C)CCC(O)(C(=O)OC2(C(C)C)CCC3(C)OC3C2)C(C)C)(C(C)C)CC1 (stereo not drawn)
Reply: -77.9

Ask: What does the data say about its growth? Entry: COCCN(C(=O)Cc1cccs1)C(C(=O)NCc1ccc(OC)cc1)c1ccc(C(C)C)cc1 (stereo not drawn)
Reply: 106

Ask: What does the data say about its growth? Entry: N#C/C(=C\c1c(-c2ccccc2)[nH]c2ccccc12)C(=O)c1ccccc1
Reply: 70.5

Ask: What does the data say about its growth? Entry: CN(C)/C=C1\SC(=Nc2ccc(Cl)cc2)NC1=O
Reply: 96

Ask: What does the data say about its growth? Entry: O=c1c2cc(F)ccc2sc2c(NCCCNCCO)nc3ccc(Cl)cc3c12
Reply: 79.5

Ask: What does the data say about its growth? Entry: COc1ccc(-c2cn[nH]c2-c2ccc(OC)c(O)c2)cc1
Reply: 99.1

Ask: What does the data say about its growth? Entry: Clc1ncccc1Nc1ccc2nnc(-c3ccncc3)n2n1
Reply: 104

Ask: What does the data say about its growth? Entry: CN1C(=O)N(C)C2Nn3c(s/c(=C\c4ccc(Cl)cc4Cl)c3=O)=NC21 (stereo not drawn)
Reply: 63.5

###

# Tested on: K-562 leukemia
# TEST_DESCRIPTION: NCI-60 one-dose screen, 48 h
# ASSAY_CONTEXT: 10 µM unless noted
The panel holds about 83,000 compounds, 20% with a hit somewhere; the sample as a whole holds those more often. The source made the active and inactive calls. Rule for the calls: active = growth percent below 10; inactive = the rest.
Output constraint: value belongs to active, inactive

Ask: Write down the call the test reported for this compound. Item: Nc1n[nH]c2ccc([C@@H]3Nc4ccc5[nH]ncc5c4[C@H]4[C@H]5CCC(C5)[C@H]43)cc12
Reply: active

Ask: Write down the call the test reported for this compound. Item: COc1cccc(C(=O)Cn2cc(/C=C(\C#N)S(=O)(=O)c3ccccc3)c3ccccc32)c1
Reply: inactive

Ask: Write down the call the test reported for this compound. Item: COc1cc2nc(-c3cnc(N(C)C)nc3)nc(NC3CCN(Cc4ccccc4)CC3)c2cc1OC
Reply: active

Ask: Write down the call the test reported for this compound. Item: COc1ccc(C2NCCc3c2[nH]c2ccccc32)cc1CN1CCN(c2ccc(F)cc2)CC1 (configuration not stated)
Reply: inactive

Ask: Write down the call the test reported for this compound. Item: C#CCn1cc(C=C2C(=O)N(C)C(=O)N(C)C2=O)c2cc(Cl)ccc21
Reply: inactive

Ask: Write down the call the test reported for this compound. Item: COc1ccc(C2=NN(/C=C3\SC(=O)NC3=Nc3ccc(F)cc3)C(c3ccc(F)cc3)C2)cc1 (configuration not stated)
Reply: inactive

Ask: Write down the call the test reported for this compound. Item: c1ccc2c(c1)oc1cc3sccc3nc12
Reply: inactive

Ask: Write down the call the test reported for this compound. Item: O=[N+]([O-])c1cc2c(ccc3occc32)o1
Reply: inactive

Ask: Write down the call the test reported for this compound. Item: CN(O)c1nc(N(C)O)nc(N2CCOCC2)n1
Reply: active

Ask: Write down the call the test reported for this compound. Item: COc1ccc(/C=C/C(=O)c2c(C)nc3ccccc3c2/C=C/c2ccccc2)c(OC)c1
Reply: inactive

Ask: Write down the call the test reported for this compound. Item: N#CC(C#N)=Cc1c(-c2ccccc2)[nH]c2ccccc12
Reply: inactive

Ask: Write down the call the test reported for this compound. Item: COc1ccc2sc3c(NCCCN)nc4ccccc4c3c(=O)c2c1
Reply: active

Ask: Write down the call the test reported for this compound. Item: COc1ccc(Cn2c(Br)c3c(c2-c2cc(OC)c(OC)c(OC)c2)CCc2sc(NC(=O)c4ccc(OC)cc4)nc2-3)cc1
Reply: inactive

Ask: Write down the call the test reported for this compound. Item: COc1ccc(-c2nsc3c2NC(=O)CC3c2cccc(OC)c2)cc1 (configuration not stated)
Reply: inactive

Ask: Write down the call the test reported for this compound. Item: COc1ccc(-c2nsc3c2NC(=O)CC3c2ccsc2)cc1 (configuration not stated)
Reply: inactive

Ask: Write down the call the test reported for this compound. Item: Clc1ccc(Nc2nnc(-c3ccc4c(c3)OCO4)o2)cc1
Reply: inactive

Ask: Write down the call the test reported for this compound. Item: Nc1ccc(-c2nn3c(CCC(=O)c4nc5ncccc5[nH]4)nnc3s2)c(O)c1
Reply: inactive

Ask: Write down the call the test reported for this compound. Item: O=C1/C(=C\c2ccc[nH]2)c2ccccc2N1c1ccccc1
Reply: inactive

Ask: Write down the call the test reported for this compound. Item: O=NN(Cc1cccnc1)C(=O)NC1CCCCC1
Reply: inactive

Ask: Write down the call the test reported for this compound. Item: Cc1sc2ncn(CC(=O)Nc3ccc(S(N)(=O)=O)cc3)c(=O)c2c1C
Reply: inactive

Ask: Write down the call the test reported for this compound. Item: O=S(=O)(c1ccccc1)n1cc2c(c1-c1ccccc1)CCc1sc(Nc3ccccc3)nc1-2
Reply: inactive

Ask: Write down the call the test reported for this compound. Item: Cc1ccc(C(=O)c2oc3ccc4c(C)cc(=O)oc4c3c2C)cc1
Reply: inactive

Ask: Write down the call the test reported for this compound. Item: COc1ccc(OC)c(N(CCN2C(=O)c3ccccc3C2=O)C(=O)CCl)c1
Reply: inactive

Ask: Write down the call the test reported for this compound. Item: Oc1ccc(-c2nc(-c3ccc4oc5ccc(-c6[nH]c(-c7ccc(O)cc7)nc6-c6ccccc6)cc5c4c3)c(-c3ccccc3)[nH]2)cc1
Reply: inactive

Ask: Write down the call the test reported for this compound. Item: O=C(CCN1C(=O)c2ccccc2C1=O)Nc1ccc(Cl)cc1
Reply: inactive

Ask: Write down the call the test reported for this compound. Item: NC(=O)CSc1nc(-c2ccc(F)cc2)cc(-c2ccco2)n1
Reply: inactive

Ask: Write down the call the test reported for this compound. Item: O=C(NCc1ccco1)C1CN(c2ccc(Cl)cc2)N(c2ccc(Cl)cc2)C1=O (configuration not stated)
Reply: inactive

The measurements presented in this section are drawn from PubChem BioAssay (NCI).
